Reported IC50, TF-1 cell proliferation values follow for various binders
- SYSTEM_TESTED: T1, human GM-CSFRα, full length on cells (human, UniProt P15509 23-400)
- T1 sequence: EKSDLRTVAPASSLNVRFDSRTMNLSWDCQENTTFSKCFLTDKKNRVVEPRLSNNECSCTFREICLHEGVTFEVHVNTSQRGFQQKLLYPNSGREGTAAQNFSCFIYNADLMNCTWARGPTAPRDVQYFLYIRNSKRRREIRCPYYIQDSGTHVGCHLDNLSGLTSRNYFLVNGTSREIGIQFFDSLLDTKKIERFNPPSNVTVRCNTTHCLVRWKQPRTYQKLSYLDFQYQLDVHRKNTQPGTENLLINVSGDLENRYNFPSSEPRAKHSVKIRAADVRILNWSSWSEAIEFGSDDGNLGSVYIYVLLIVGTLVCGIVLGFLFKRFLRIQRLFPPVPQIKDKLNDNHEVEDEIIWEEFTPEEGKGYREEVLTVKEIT
- ASSAY_SUMMARY: cell-based or functional assay
Entry rule: numbers only, all in µg/mL.

{"BINDER": "E35-scFv LA51G (scFv, V domains shown) VH: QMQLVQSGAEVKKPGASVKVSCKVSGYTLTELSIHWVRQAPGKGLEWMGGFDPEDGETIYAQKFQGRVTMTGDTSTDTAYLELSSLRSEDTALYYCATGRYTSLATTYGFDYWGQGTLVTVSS VL: EIVMTQSPATLSLSPGERATLSCRASQSVSSYLAWYQQKPGQAPRLLIYGGSSRATGIPDRFSGSGSGTDFTLTISRLEPEDFAVYYCQQYDNWPYTFGQGTKLEIK", "UNIT_LABEL": "µg/mL", "IC50, TF-1 cell proliferation": 0.12}

Inquiry: For the binder E35-scFv LN93M (scFv, V domains shown) VH: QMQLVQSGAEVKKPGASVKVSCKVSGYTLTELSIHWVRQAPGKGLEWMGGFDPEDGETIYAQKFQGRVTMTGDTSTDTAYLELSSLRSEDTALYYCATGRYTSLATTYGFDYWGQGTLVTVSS VL: EIVMTQSPATLSLSPGERATLSCRASQSVSSYLAWYQQKPGQAPRLLIYGASSRATGIPDRFSGSGSGTDFTLTISRLEPEDFAVYYCQQYDMWPYTFGQGTKLEIK , give its measured IC50, TF-1 cell proliferation value.
Reply text: 0.27

Inquiry: For the binder E35-scFv HE31S (scFv, V domains shown) VH: QMQLVQSGAEVKKPGASVKVSCKVSGYTLTSLSIHWVRQAPGKGLEWMGGFDPEDGETIYAQKFQGRVTMTGDTSTDTAYLELSSLRSEDTALYYCATGRYTSLATTYGFDYWGQGTLVTVSS VL: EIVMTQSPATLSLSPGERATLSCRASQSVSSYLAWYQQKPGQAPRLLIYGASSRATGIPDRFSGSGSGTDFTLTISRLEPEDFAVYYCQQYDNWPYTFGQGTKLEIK , give its measured IC50, TF-1 cell proliferation value.
Reply text: 0.14
